Test system: Daudi
Test: Cell proliferation experiment (EC50), Daudi
Type: cell-based
Conditions: Homo sapiens; Daudi cells
pEC50: −log10 of the molar value.
READOUT TYPE: pEC50

Some solved entries appear below for comparison.
[[record]]
molecule = "CC[C@@H]1C(=O)N(C)c2cnc(Nc3ccc(C(=O)NCCOCCOCCOCCNCCCc4cccc5c4CN(C4CCC(=O)NC4=O)C5=O)cc3OC)nc2N1C1CCCC1 (stereo partly drawn)"
readout_type = "pEC50"
value_measured = "6.00 to 7.00"

[[record]]
molecule = "CC[C@@H]1C(=O)N(C)c2cnc(Nc3ccc(C(=O)NCCOCCOCCOCCOCCNCC#Cc4cccc5c4CN(C4CCC(=O)NC4=O)C5=O)cc3OC)nc2N1C1CCCC1 (stereo partly drawn)"
readout_type = "pEC50"
value_measured = "6.00 to 7.00"


In the following, a different molecule is considered.
Q: Any idea what its pEC50 is? The molecule is CC[C@@H]1C(=O)N(C)c2cnc(Nc3ccc(C(=O)NCc4cn(CCN(C)CCC(=O)Nc5cccc6c5CN(C5CCC(=O)NC5=O)C6=O)nn4)cc3OC)nc2N1C1CCCC1 (stereo partly drawn)
Result: 6.00 to 7.00

###

pEC50 reference
Tested on: Human Monocytic Leukemia MV4-11
Test: Cell proliferation experiment (Alarm blue, 72 h, EC50)
Format: cell-based
Conditions: MV4;11 cells
pEC50: −log10 of the molar value.

Some solved entries appear below for comparison.
[[record]]
compound = "O=C1CCC(N2Cc3c(NC(=O)CCNCCOCCn4cc(CNC(=O)[C@]5(Cc6cccc(Nc7nccs7)n6)CC[C@@H](Oc6cccc(Cl)c6F)CC5)nn4)cccc3C2=O)C(=O)N1 (stereo partly shown) [UB-180739]"
target = "Human Monocytic Leukemia MV4-11"
readout_type = "pEC50"
value_measured = "< 6.00"

[[record]]
compound = "CC[C@@H]1C(=O)N(C)c2cnc(Nc3ccc(C(=O)NCCOCCOCCOCCNCCCC(=O)Nc4cccc5c4CN(C4CCC(=O)NC4=O)C5=O)cc3OC)nc2N1C1CCCC1 (stereo partly shown)"
target = "Human Monocytic Leukemia MV4-11"
readout_type = "pEC50"
value_measured = "7.00 to 8.00"

[[record]]
compound = "O=C1CCC(N2Cc3c(NC(=O)CCNCCOCCn4cc(CNC(=O)[C@]5(Cc6cccc(Nc7nccs7)n6)CC[C@@H](Oc6cccc(Cl)c6F)CC5)nn4)cccc3C2=O)C(=O)N1 (stereo partly shown) [UB-180749]"
target = "Human Monocytic Leukemia MV4-11"
readout_type = "pEC50"
value_measured = "6.00 to 7.00"


Q: Any idea what its pEC50 is? The compound is O=C1CCC(N2Cc3c(NC(=O)CCNCCOCCn4cc(CNC(=O)c5ccc(Nc6ncc7c(n6)-c6ccc(Cl)cc6C(c6c(F)cccc6F)=NC7)cc5)nn4)cccc3C2=O)C(=O)N1 (stereo not shown) [UB-180748]
Result: < 6.00

###

System: Human Monocytic Leukemia MV4-11
Assay: Cell proliferation experiment (Alarm blue, 72 h, EC50)
Type: cell-based
Conditions: MV4;11 cells
READOUT TYPE: EC50

[[record]]
compound = "CC[C@@H]1c2nncn2-c2cnc(Nc3ccc(C(=O)NCCOCCOCCOCCOCC(=O)Nc4cccc5c4CN(C4CCC(=O)NC4=O)C5=O)cc3OC)nc2N1C1CCCC1 (some centres unmarked)"
value_measured = "> 1000 nM"

[[record]]
compound = "CC[C@@H]1C(=O)N(C)c2cnc(Nc3ccc(C(=O)NCCOCCNCCCC(=O)Nc4cccc5c4CN(C4CCC(=O)NC4=O)C5=O)cc3OC)nc2N1Cc1ccc(Br)cc1 (some centres unmarked)"
value_measured = "10 to 100 nM"

[[record]]
compound = "O=C1CCC(N2Cc3c(NC(=O)CNCCOCCN4CCN(CCNC(=O)[C@]5(Cc6cccc(Nc7nccs7)n6)CC[C@@H](Oc6cccc(Cl)c6F)CC5)CC4)cccc3C2=O)C(=O)N1 (some centres unmarked)"
value_measured = "100 to 1000 nM"

[[record]]
compound = "O=C1CCC(N2Cc3c(NC(=O)CCNCCOCCn4cc(CNC(=O)c5ccc(Nc6ncc7c(n6)-c6ccc(Cl)cc6C(c6c(F)cccc6F)=NC7)cc5)nn4)cccc3C2=O)C(=O)N1 (centres unmarked) [UB-180738]"
value_measured = "100 to 1000 nM"


Q: Any idea what its EC50 is? The compound is CC[C@@H]1C(=O)N(C)c2cnc(Nc3ccc(C(=O)NC4CCN(CCOCCNCC(=O)Nc5cccc6c5CN(C5CCC(=O)NC5=O)C6=O)CC4)cc3OC)nc2N1Cc1ccc(C)s1 (some centres unmarked)
Result: 10 to 100 nM

###

Test system: PBMC
Test: Cell proliferation experiment (EC50), PBMC
Format: cell-based
READOUT TYPE: EC50

[[record]]
compound = "O=C1CCC(N2Cc3c(NC(=O)CNCCOCCN4CCN(CCNC(=O)[C@]5(Cc6cccc(Nc7nccs7)n6)CC[C@@H](Oc6cccc(Cl)c6F)CC5)CC4)cccc3C2=O)C(=O)N1 (stereo partly drawn)"
readout_type = "EC50"
value_measured = "> 1000 nM"

[[record]]
compound = "O=C1CCC(N2Cc3c(NC(=O)CCOCCOCCOCCNCCOCCNC(=O)[C@]4(Cc5cccc(Nc6nccs6)n5)CC[C@@H](Oc5cccc(Cl)c5F)CC4)cccc3C2=O)C(=O)N1 (stereo partly drawn)"
readout_type = "EC50"
value_measured = "> 1000 nM"


In the following, a different compound is considered.
Q: Any idea what its EC50 is? The compound is CC[C@@H]1C(=O)N(C)c2cnc(Nc3ccc(C(=O)NC4CCN(CCOCCN(CC(=O)Nc5cccc6c5CN(C5CCC(=O)NC5=O)C6=O)C(=O)OC(C)C(C)SSC[C@@H](NC(=O)CCOCCOCCOCCOCCOCCOCCNC(=O)CC[C@H](NC(=O)c5ccc(NCc6cnc7nc(N)[nH]c(=O)c7n6)cc5)C(=O)O)C(=O)O)CC4)cc3OC)nc2N1C1CCCC1 (stereo partly drawn)
Result: > 1000 nM

###

Target: BRD4 (Homo sapiens)
Construct: endogenous in cells
Test: Western blot, protein degradation (DC50)
Assay type: cell-based
Conditions: 24 h; read-out: BRD4 DC50 (nM) (24 h)
DC50 reference

Some solved entries appear below for comparison.
[[record]]
compound = "CC[C@@H]1C(=O)N(C)c2cnc(Nc3ccc(C(=O)NC4CCN(CCOCCNCC(=O)Nc5cccc6c5CN(C5CCC(=O)NC5=O)C6=O)CC4)cc3OC)nc2N1Cc1ccc(Cl)s1 (stereo partly drawn) [UB-180725]"
readout_type = "DC50"
value_measured = "< 10 nM"

[[record]]
compound = "CC[C@@H]1c2c(C#N)ncn2-c2cnc(Nc3ccc(C(=O)NCc4cn(CCNCCOCC(=O)Nc5cccc6c5CN(C5CCC(=O)NC5=O)C6=O)nn4)cc3OC)nc2N1C1CCCC1 (stereo partly drawn) [UB-180718]"
readout_type = "DC50"
value_measured = "100 to 1000 nM"


In the following, a different compound is considered.
Q: Any idea what its DC50 is? The compound is CC[C@@H]1C(=O)N(C)c2cnc(Nc3ccc(C(=O)NCc4cn(CCNCCC(=O)Nc5cccc6c5CN(C5CCC(=O)NC5=O)C6=O)nn4)cc3OC)nc2N1Cc1ccc(Cl)s1 (stereo partly drawn) [UB-180714]
Result: < 10 nM
